target: DCAF1 WD40 domain (residues 1077-1390) (Homo sapiens); construct: DCAF1 WD40 domain (residues 1077-1390); test: DCAF1 binding assay by SPR (Biacore 8K+), DCAF1-3 KD; conditions: 25 °C, read-out: DCAF1-3 SPR (KD)
Sequence (Q9Y4B6 1077-1390): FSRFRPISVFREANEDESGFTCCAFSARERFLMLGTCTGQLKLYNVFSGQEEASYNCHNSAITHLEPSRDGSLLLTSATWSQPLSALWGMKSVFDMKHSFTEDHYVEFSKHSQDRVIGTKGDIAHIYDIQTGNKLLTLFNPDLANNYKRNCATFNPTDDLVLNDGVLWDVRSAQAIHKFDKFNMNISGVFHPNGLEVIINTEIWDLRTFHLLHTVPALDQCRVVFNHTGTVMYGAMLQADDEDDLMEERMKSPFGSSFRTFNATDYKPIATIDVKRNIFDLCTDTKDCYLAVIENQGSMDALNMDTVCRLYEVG
Measured Quantity: Kd

Query Cc1sc2c(c1C)C(c1ccc(Cl)cc1)=N[C@@H](CC(=O)NCCOCCOCCOCCOCCn1ncc(C(=O)N[C@@H](CC(N)=O)c3cccc(Cl)c3)c1-c1ccccc1F)c1nnc(C)n1-2 yields Kd of > 200 µM

Entry C=CC(=O)NCCCC1CCN(c2ccnc(N3CC[C@H]4[C@@H]3CCCN4c3cccc(F)c3)c2)CC1 , Kd reported as < 10 µM

So, Cc1ncc(N2CCOCC2)cc1N[C@@H]1CCCN(c2cccc(F)c2)C1 ? Its Kd was > 200 µM

Record Fc1cccc(N2CCC[C@@H](Sc3cc(N4CCOCC4)ccn3)C2)c1 , field Kd: > 200 µM

The reported Kd of the molecule NC(=O)C[C@H](NC(=O)c1cn[nH]c1-c1ccc(O)cc1)c1cccc(Cl)c1 was 10 to 100 µM

// c1cc(N2CCOCC2)cc(N[C@@H]2CCCN(c3ccc4c(N5CCNCC5)ccnc4c3)C2)n1 : Kd value = 10 to 100 µM

Summary for this molecule, c1cncc(-c2ccnc(N3CCC[C@@H](Nc4cc(N5CCOCC5)ccn4)C3)n2)c1 : Kd is 10 to 100 µM

The reported Kd of the molecule COCCC1C2CCC1CN(c1ccnc(N[C@@H]3CCCN(c4cccc(F)c4)C3)c1)C2 (some centres unmarked) was < 10 µM
